Reported pIC50 values follow for various compounds
molecular target: Recombinant STAT3 protein (STAT3(G127-I722)) (Homo sapiens); construct: Recombinant STAT3 protein (STAT3(G127-I722)); assay: STAT3 Fluorescence Polarization (FP) Assay; conditions: STAT3(G127-I722) 25 nM, probe 5-FAM-GpYLPQTV-NH2 2 nM, 45-minute incubation
pIC50: −log10 of the molar value.

Previously resolved entries follow.
Lookup: Name the recorded pIC50 for CN(C)C(=O)[C@@H]1CC[C@@H]2CCN(c3ccccc3)C[C@H](NC(=O)c3cc4cc(C(F)(F)P(=O)(O)O)ccc4[nH]3)C(=O)N21 [Compound 223] .
Found: 5.00 to 6.00

Lookup: Name the recorded pIC50 for CC(=O)N1CC[C@H]2CC[C@@H](C(=O)N3CCC(c4cnc5n4CCCC5)C3)N2C(=O)[C@@H](NC(=O)c2cc3cc(C(F)(F)P(=O)(O)O)ccc3s2)C1 (stereo partly drawn) [Compound 81] .
Found: 6.00 to 7.00

Now for a further compound.
Lookup: Name the recorded pIC50 for CC(=O)N1CC[C@H]2CC[C@@H](C(=O)N(C)c3ccccc3)N2C(=O)[C@@H](NC(=O)c2cc3cc(C(F)(F)P(=O)(O)O)cnc3s2)C1 [Compound 110] .
Found: 5.00 to 6.00

###

Biological target: Recombinant STAT3 protein (STAT3(G127-I722)) (Homo sapiens, UniProt P40763)
Construct: Recombinant STAT3 protein (STAT3(G127-I722))
Sequence (P40763 127-722): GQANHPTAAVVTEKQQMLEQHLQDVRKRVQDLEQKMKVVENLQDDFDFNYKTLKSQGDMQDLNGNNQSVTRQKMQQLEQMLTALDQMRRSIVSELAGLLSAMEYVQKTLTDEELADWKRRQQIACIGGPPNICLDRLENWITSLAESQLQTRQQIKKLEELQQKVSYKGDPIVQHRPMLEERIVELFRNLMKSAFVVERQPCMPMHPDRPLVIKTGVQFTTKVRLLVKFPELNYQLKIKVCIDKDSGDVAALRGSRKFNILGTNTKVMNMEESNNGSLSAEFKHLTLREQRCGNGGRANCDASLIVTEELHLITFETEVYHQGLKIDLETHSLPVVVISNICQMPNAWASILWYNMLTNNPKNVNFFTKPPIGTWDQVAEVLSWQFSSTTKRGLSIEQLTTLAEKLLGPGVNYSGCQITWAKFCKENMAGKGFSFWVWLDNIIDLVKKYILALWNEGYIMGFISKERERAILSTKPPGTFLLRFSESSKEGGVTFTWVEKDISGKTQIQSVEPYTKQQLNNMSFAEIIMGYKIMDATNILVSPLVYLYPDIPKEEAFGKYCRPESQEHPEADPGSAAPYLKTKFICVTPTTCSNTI
Assay: STAT3 Fluorescence Polarization (FP) Assay
Conditions: STAT3(G127-I722) 25 nM, probe 5-FAM-GpYLPQTV-NH2 2 nM, 45-minute incubation
Experimental: STAT3 Fluorescence Polarization (FP) Assay An FP assay was developed to determine IC50 values for test substances. […] Reaction components were mixed, and FP was measured after 45-minute incubation at room temperature using a Tecan Spark multimode plate reader. FP signal (mP) was plotted against the log concentration of the test substances and IC50 values were calculated by nonlinear regression analysis using GraphPad Prism software. […]
recorded metric: IC50

Lookup: Name the recorded IC50 for CCC(=O)NCCCN(C)C(=O)[C@@H]1CC[C@@H]2CCN(C(C)=O)C[C@H](NC(=O)c3cc4cc(C(=O)P(=O)(O)O)ccc4[nH]3)C(=O)N21 .
Found: 1 to 10 µM

More entries:
Lookup: Name the recorded IC50 for N#CC1CN(C(=O)C2CCC3CCNCC(NC(=O)c4cc5cc(C(F)(F)P(=O)(O)O)ccc5s4)C(=O)N32)CC1c1ccccc1 (mixture of isomers) .
Found: 1 to 10 µM

Lookup: Name the recorded IC50 for CC(=O)N1CC[C@H]2CC[C@@H](C(=O)N3C[C@H](C#N)C[C@H]3c3ccccc3)N2C(=O)[C@@H](NC(=O)c2cc3cc(C(F)(F)P(=O)(O)O)ccc3s2)C1 (relative stereo) .
Found: 1 to 10 µM

###

Reported pIC50 values follow for various compounds
molecular target: Recombinant STAT6 protein (STAT6(W123-T658)) (Homo sapiens); construct: Recombinant STAT6 protein (STAT6(W123-T658)); assay: STAT6 Fluorescence Polarization (FP) Assay; conditions: STAT6(W123-T658) 250 nM, probe 5-FAM-ApYKPFQDLI-NH2 2 nM, 45-minute incubation
Sequence (P42226 123-658): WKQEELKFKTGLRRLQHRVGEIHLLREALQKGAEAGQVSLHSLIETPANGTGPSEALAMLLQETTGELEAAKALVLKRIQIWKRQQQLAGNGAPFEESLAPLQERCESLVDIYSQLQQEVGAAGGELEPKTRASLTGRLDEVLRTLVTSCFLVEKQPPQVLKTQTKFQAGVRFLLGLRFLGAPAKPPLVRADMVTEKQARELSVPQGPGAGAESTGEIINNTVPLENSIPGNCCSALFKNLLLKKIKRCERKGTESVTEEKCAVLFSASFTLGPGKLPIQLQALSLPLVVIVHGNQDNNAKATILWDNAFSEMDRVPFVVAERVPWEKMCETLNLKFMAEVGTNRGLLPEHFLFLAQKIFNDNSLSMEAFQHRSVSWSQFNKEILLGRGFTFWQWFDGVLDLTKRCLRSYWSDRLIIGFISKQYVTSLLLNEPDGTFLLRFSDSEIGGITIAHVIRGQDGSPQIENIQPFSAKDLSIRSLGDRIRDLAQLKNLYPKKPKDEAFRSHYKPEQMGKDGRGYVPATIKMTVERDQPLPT
pIC50: −log10 of the molar value.

Lookup: Name the recorded pIC50 for CC(=O)N1CC[C@H]2CC[C@@H](C(=O)N[C@H]3CCC[C@H]3N)N2C(=O)[C@@H](NC(=O)c2cc3cc(C(F)(F)P(=O)(O)O)ccc3[nH]2)C1 .
Found: 5.52 to 6.52

Lookup: Name the recorded pIC50 for CC(=O)N1CC[C@H]2CC[C@@H](C(=O)Nc3ccc(OCCN(C)C)cc3)N2C(=O)[C@@H](NC(=O)c2cc3cc(C(F)(F)P(=O)(O)O)ccc3s2)C1 .
Found: 4.52 to 5.52

More entries:
Lookup: Name the recorded pIC50 for N#Cc1ccccc1-c1ccc(NC(=O)[C@@H]2CC[C@@H]3CCN(C(=O)Cc4ccccc4)C[C@H](NC(=O)c4cc5cc(C(F)(F)P(=O)(O)O)ccc5[nH]4)C(=O)N32)cc1 .
Found: ≥ 6.52

Lookup: Name the recorded pIC50 for CC(=O)N1CC[C@H]2CC[C@@H](C(=O)Nc3ccc4ccnnc4c3)N2C(=O)[C@@H](NC(=O)c2cc3cc(C(F)(F)P(=O)(O)O)ccc3s2)C1 .
Found: 5.52 to 6.52

Lookup: Name the recorded pIC50 for NC(=O)[C@@H]1CN(C(=O)[C@@H]2CC[C@@H]3CCN(CC(F)F)C[C@H](NC(=O)c4cc5cc(C(F)(F)P(=O)(O)O)ccc5s4)C(=O)N32)C[C@H]1c1ccccc1 (single isomer, unassigned) .
Found: 5.52 to 6.52

Lookup: Name the recorded pIC50 for CC(=O)N1CC[C@H]2CC[C@@H](C(=O)N3C[C@@H](C#N)[C@H](c4ccccc4)C3)N2C(=O)[C@@H](NC(=O)c2cc3cc(C(F)(F)P(=O)(O)O)ccc3[nH]2)C1 (single isomer, unassigned) .
Found: ≥ 6.52

Lookup: Name the recorded pIC50 for CC(=O)N1CC[C@H]2CC[C@@H](C(=O)N3CCC[C@H]3Cc3ccccc3)N2C(=O)[C@@H](NC(=O)c2cc3cc(C(F)(F)P(=O)(O)O)ccc3s2)C1 .
Found: ≥ 6.52

Lookup: Name the recorded pIC50 for N#CC1CN(C(=O)C2CCC3CNCCC(NC(=O)c4ccc5ccc(C(F)(F)P(=O)(O)O)cc5c4)C(=O)N32)CC1c1ccccc1 (mixture of isomers) .
Found: ≥ 6.52

Lookup: Name the recorded pIC50 for CC(=O)Nc1ccn(C2CCN(C(=O)[C@@H]3CC[C@@H]4CCN(C(C)=O)C[C@H](NC(=O)c5cc6cc(C(F)(F)P(=O)(O)O)ccc6s5)C(=O)N43)C2)n1 (stereo partly shown) .
Found: 5.52 to 6.52

Lookup: Name the recorded pIC50 for CC(=O)N1CC[C@H]2CC[C@@H](C(=O)N(C)CC(C)(C)O)N2C(=O)[C@@H](NC(=O)c2cc3cc(C(F)(F)P(=O)(O)O)ccc3s2)C1 .
Found: 5.52 to 6.52
